Property: pEC50; scope: individual molecules
Tested on: LHRH binding sites on human ovarian cancer cells (EFO-27);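 note: Cell-associated radioactivity on confluent EFO-27 monolayers in 96-well plates, measured by microplate scintillation counting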
Residues, ends and D or L forms follow the SMILES beside them.
Note on units: pEC50 is unitless, being -log10 of a concentration expressed in mol/L.

Molecule | Target Desc | pEC50
CN(CC(=O)N[C@@H](Cc1c[nH]cn1)C(=O)N[C@@H](Cc1c[nH]c2ccccc12)C(=O)N[C@@H](CO)C(=O)N[C@@H](Cc1c[nH]cn1)C(=O)N[C@H](CCCNC(=N)N)C(=O)N[C@@H](Cc1c[nH]c2ccccc12)C(=O)N[C@@H](Cc1ccc(Oc2ccc(O)cc2)cc1)C(=O)N1CCC[C@H]1C(=O)NNC(N)=O)C(=O)CN1CCN(CC(=O)O)CCN(CC(=O)O)CCN(CC(=O)O)CC1 | LHRH binding sites on human ovarian cancer cells (EFO-27) | 5.79

## Input Dear colleague, I am looking for the recorded pEC50 of the following molecule: NCCCC[C@@H](NC(=O)[C@H](Cc1c[nH]cn1)NC(=O)[C@H](CO)NC(=O)[C@H](Cc1c[nH]c2ccccc12)NC(=O)[C@H](Cc1c[nH]cn1)NC(=O)[C@@H]1CCC(=O)N1)C(=O)N[C@@H](Cc1c[nH]c2ccccc12)C(=O)N[C@@H](Cc1ccc(O)cc1)C(=O)N1CCC[C@H]1C(=O)NNC(N)=O [BRU-2437] (HELM PEPTIDE1{[Glp].H.W.S.H.[dK].W.Y.P.[O=C(NN[*:1])[*:2]].[am]}$$$$V2.0)
## Output 5.07
